Reference source for all entries: ChEMBL document CHEMBL1629662

- Test system: Shigella boydii
- procedureDetails: Antibacterial activity against Shigella boydii by broth microdilution method
- Assay type: functional
resultType: MIC50 (µg/mL)
One number for each entry, in µg/mL.

These recorded examples may help you get a feel for the data.
Q) In one line, give reported MIC50 of the entry CC1(C)S[C@@H]2[C@H](NC(=O)[C@H](N)c3ccccc3)C(=O)N2[C@H]1C(=O)O [AMPICILLIN] .
A) 128

Q) In one line, give reported MIC50 of the entry CC1Sc2c(C(=O)O)c(=O)c3cc(F)c(N4CCNCC4)cc3n21 (stereo unspecified) [ULIFLOXACIN] .
A) 0.004

Q) In one line, give reported MIC50 of the entry O=C(O)c1cn(C2CC2)c2cc(N3CCNCC3)c(F)cc2c1=O [CIPROFLOXACIN] .
A) 0.008

Q) In one line, give reported MIC50 of the entry CO[C@H]1/C=C/O[C@@]2(C)Oc3c(C)c(O)c4c(O)c(c5c(nc6cc(C)ccn65)c4c3C2=O)NC(=O)/C(C)=C\C=C\[C@H](C)[C@H](O)[C@@H](C)[C@@H](O)[C@@H](C)[C@H](OC(C)=O)[C@@H]1C [RIFAXIMIN] .
A) 8

Others:
Q) In one line, give reported MIC50 of the entry C[C@H]1c2cccc(O)c2C(=O)C2=C(O)[C@]3(O)C(=O)C(C(N)=O)=C(O)[C@@H](N(C)C)[C@@H]3[C@@H](O)[C@@H]21.O [DOXYCYCLINE] .
A) 16

* * *

Field: MIC90. Provide a value for each of the compounds that follow.
- Test system: Aeromonas veronii
- procedureDetails: Antibacterial activity against Aeromonas veronii by broth microdilution method
- Type: functional
Answers are plain numbers, in µg/mL.

These recorded examples may help you get a feel for the data.
Q) In one line, give reported MIC90 of the entry CO[C@H]1/C=C/O[C@@]2(C)Oc3c(C)c(O)c4c(O)c(c5c(nc6cc(C)ccn65)c4c3C2=O)NC(=O)/C(C)=C\C=C\[C@H](C)[C@H](O)[C@@H](C)[C@@H](O)[C@@H](C)[C@H](OC(C)=O)[C@@H]1C .
A) 8

Q) In one line, give reported MIC90 of the entry C[C@H]1c2cccc(O)c2C(=O)C2=C(O)[C@]3(O)C(=O)C(C(N)=O)=C(O)[C@@H](N(C)C)[C@@H]3[C@@H](O)[C@@H]21.O .
A) 1

Others:
Q) In one line, give reported MIC90 of the entry CC1Sc2c(C(=O)O)c(=O)c3cc(F)c(N4CCNCC4)cc3n21 (stereo not drawn) .
A) 0.06

* * *

- Test system: Campylobacter coli
- procedureDetails: Antibacterial activity against Campylobacter coli by broth microdilution method
- Type: functional
Field: MIC90. Provide a value for each of the molecules that follow.
Give bare numbers, in µg/mL.

These recorded examples may help you get a feel for the data.
Q) In one line, give reported MIC90 of the entry CC1(C)S[C@@H]2[C@H](NC(=O)[C@H](N)c3ccccc3)C(=O)N2[C@H]1C(=O)O [AMPICILLIN] .
A) 32

Q) In one line, give reported MIC90 of the entry CC[C@H]1OC(=O)[C@H](C)[C@@H](O[C@H]2C[C@@](C)(OC)[C@@H](O)[C@H](C)O2)[C@H](C)[C@@H](O[C@@H]2O[C@H](C)C[C@H](N(C)C)[C@H]2O)[C@](C)(O)C[C@@H](C)C(=O)[C@H](C)[C@@H](O)[C@]1(C)O [ERYTHROMYCIN] .
A) 0.5

Q) In one line, give reported MIC90 of the entry CO[C@H]1/C=C/O[C@@]2(C)Oc3c(C)c(O)c4c(O)c(c5c(nc6cc(C)ccn65)c4c3C2=O)NC(=O)/C(C)=C\C=C\[C@H](C)[C@H](O)[C@@H](C)[C@@H](O)[C@@H](C)[C@H](OC(C)=O)[C@@H]1C [RIFAXIMIN] .
A) 32

Others:
Q) In one line, give reported MIC90 of the entry C[C@H]1c2cccc(O)c2C(=O)C2=C(O)[C@]3(O)C(=O)C(C(N)=O)=C(O)[C@@H](N(C)C)[C@@H]3[C@@H](O)[C@@H]21.O [DOXYCYCLINE] .
A) 16

* * *

- Tested on: Aeromonas veronii
- procedureDetails: Antibacterial activity against Aeromonas veronii by broth microdilution method
- Type: functional
Field: MIC50. Provide a value for each of the compounds that follow.
Give bare numbers, in µg/mL.

These recorded examples may help you get a feel for the data.
Q) In one line, give reported MIC50 of the entry C[C@H]1c2cccc(O)c2C(=O)C2=C(O)[C@]3(O)C(=O)C(C(N)=O)=C(O)[C@@H](N(C)C)[C@@H]3[C@@H](O)[C@@H]21.O [DOXYCYCLINE] .
A) 0.5

Q) In one line, give reported MIC50 of the entry CC1Sc2c(C(=O)O)c(=O)c3cc(F)c(N4CCNCC4)cc3n21 (stereo unspecified) [ULIFLOXACIN] .
A) 0.004

Q) In one line, give reported MIC50 of the entry CO[C@H]1/C=C/O[C@@]2(C)Oc3c(C)c(O)c4c(O)c(c5c(nc6cc(C)ccn65)c4c3C2=O)NC(=O)/C(C)=C\C=C\[C@H](C)[C@H](O)[C@@H](C)[C@@H](O)[C@@H](C)[C@H](OC(C)=O)[C@@H]1C [RIFAXIMIN] .
A) 4

Others:
Q) In one line, give reported MIC50 of the entry O=C(O)c1cn(C2CC2)c2cc(N3CCNCC3)c(F)cc2c1=O [CIPROFLOXACIN] .
A) 0.004

* * *

- System: Shigella flexneri
- procedureDetails: Antibacterial activity against Shigella flexneri by broth microdilution method
- Format: functional
Field: MIC90. Provide a value for each of the compounds that follow.

These recorded examples may help you get a feel for the data.
Q) In one line, give reported MIC90 of the entry CO[C@H]1/C=C/O[C@@]2(C)Oc3c(C)c(O)c4c(O)c(c5c(nc6cc(C)ccn65)c4c3C2=O)NC(=O)/C(C)=C\C=C\[C@H](C)[C@H](O)[C@@H](C)[C@@H](O)[C@@H](C)[C@H](OC(C)=O)[C@@H]1C [RIFAXIMIN] .
A) 16 µg/mL

Q) In one line, give reported MIC90 of the entry CC1Sc2c(C(=O)O)c(=O)c3cc(F)c(N4CCNCC4)cc3n21 (stereo not drawn) [ULIFLOXACIN] .
A) 0.008 µg/mL

Please examine the following record next.
Q) In one line, give reported MIC90 of the entry C[C@H]1c2cccc(O)c2C(=O)C2=C(O)[C@]3(O)C(=O)C(C(N)=O)=C(O)[C@@H](N(C)C)[C@@H]3[C@@H](O)[C@@H]21.O [DOXYCYCLINE] .
A) 32 µg/mL

* * *

- Test system: Shigella flexneri
- procedureDetails: Antibacterial activity against Shigella flexneri by broth microdilution method
- Type: functional
resultType: MIC90

These recorded examples may help you get a feel for the data.
Q) In one line, give reported MIC90 of the entry O=C(O)c1cn(C2CC2)c2cc(N3CCNCC3)c(F)cc2c1=O .
A) 0.016 µg/mL

Q) In one line, give reported MIC90 of the entry CCn1cc(C(=O)O)c(=O)c2ccc(C)nc21 .
A) ≤ 8 µg/mL

Others:
Q) In one line, give reported MIC90 of the entry CC1(C)S[C@@H]2[C@H](NC(=O)[C@H](N)c3ccccc3)C(=O)N2[C@H]1C(=O)O .
A) > 256 µg/mL

* * *

Field: MIC50. Provide a value for each of the compounds that follow.
- Tested on: Salmonella enteritidis
- procedureDetails: Antibacterial activity against Salmonella enterica serovar Enteritidis by broth microdilution method
- Format: functional, Salmonella enterica subsp. enterica serovar Enteritidis
Give bare numbers, in µg/mL.

Q) In one line, give reported MIC50 of the entry C[C@H]1c2cccc(O)c2C(=O)C2=C(O)[C@]3(O)C(=O)C(C(N)=O)=C(O)[C@@H](N(C)C)[C@@H]3[C@@H](O)[C@@H]21.O .
A) 2

Q) In one line, give reported MIC50 of the entry CC1(C)S[C@@H]2[C@H](NC(=O)[C@H](N)c3ccccc3)C(=O)N2[C@H]1C(=O)O .
A) 1

Q) In one line, give reported MIC50 of the entry CC1Sc2c(C(=O)O)c(=O)c3cc(F)c(N4CCNCC4)cc3n21 (stereo unspecified) .
A) 0.008

Q) In one line, give reported MIC50 of the entry CO[C@H]1/C=C/O[C@@]2(C)Oc3c(C)c(O)c4c(O)c(c5c(nc6cc(C)ccn65)c4c3C2=O)NC(=O)/C(C)=C\C=C\[C@H](C)[C@H](O)[C@@H](C)[C@@H](O)[C@@H](C)[C@H](OC(C)=O)[C@@H]1C .
A) 8

Others:
Q) In one line, give reported MIC50 of the entry O=C(O)c1cn(C2CC2)c2cc(N3CCNCC3)c(F)cc2c1=O .
A) 0.008
